Recorded values, source patent US20230310428A1.

target: various mutants of kinase EGFR (BaF3 cell lines stably transfected with kinase) (Homo sapiens, UniProt P00533, L858R); construct: expressed in transfected cells; host or cells: BaF3; assay: Growth inhibitory activity of compounds on BaF3 cell lines stably transfected with kinase (MTS, 48 h); assay type: cell-based; settings: BaF3 cell line stably transfected with EGFR L858R, read-out: L858R growth inhibitory activity IC50
Sequence (P00533 25-1210 L858R): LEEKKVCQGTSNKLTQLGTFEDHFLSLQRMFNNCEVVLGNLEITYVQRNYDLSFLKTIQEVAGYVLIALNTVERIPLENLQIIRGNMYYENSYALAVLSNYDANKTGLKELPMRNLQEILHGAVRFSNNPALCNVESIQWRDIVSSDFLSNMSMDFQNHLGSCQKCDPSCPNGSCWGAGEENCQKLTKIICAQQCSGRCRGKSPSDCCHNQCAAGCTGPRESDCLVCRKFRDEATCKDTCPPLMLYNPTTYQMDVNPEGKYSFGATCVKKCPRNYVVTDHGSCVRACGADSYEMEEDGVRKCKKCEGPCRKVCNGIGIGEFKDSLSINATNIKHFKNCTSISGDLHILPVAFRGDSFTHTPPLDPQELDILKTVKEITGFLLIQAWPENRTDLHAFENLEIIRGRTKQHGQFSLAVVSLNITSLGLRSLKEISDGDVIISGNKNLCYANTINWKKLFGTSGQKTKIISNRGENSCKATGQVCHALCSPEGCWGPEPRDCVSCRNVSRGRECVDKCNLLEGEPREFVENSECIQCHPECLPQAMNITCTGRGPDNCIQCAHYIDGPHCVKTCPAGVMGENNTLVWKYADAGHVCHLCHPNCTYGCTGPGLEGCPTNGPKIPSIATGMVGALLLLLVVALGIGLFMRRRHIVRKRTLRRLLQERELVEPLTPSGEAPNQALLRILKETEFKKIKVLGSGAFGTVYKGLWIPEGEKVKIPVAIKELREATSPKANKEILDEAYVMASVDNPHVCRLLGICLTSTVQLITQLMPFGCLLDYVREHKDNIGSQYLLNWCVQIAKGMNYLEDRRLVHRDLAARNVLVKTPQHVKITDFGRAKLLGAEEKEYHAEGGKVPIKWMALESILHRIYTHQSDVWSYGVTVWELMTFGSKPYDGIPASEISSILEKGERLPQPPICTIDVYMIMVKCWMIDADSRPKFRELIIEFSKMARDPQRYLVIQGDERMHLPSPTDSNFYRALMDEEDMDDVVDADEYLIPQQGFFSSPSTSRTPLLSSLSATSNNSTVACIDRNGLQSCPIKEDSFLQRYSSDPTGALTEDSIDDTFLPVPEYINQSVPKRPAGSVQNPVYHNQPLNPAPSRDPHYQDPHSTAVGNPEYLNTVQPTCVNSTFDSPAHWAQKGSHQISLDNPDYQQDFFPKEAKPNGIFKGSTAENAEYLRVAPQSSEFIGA
pIC50: −log10 of the molar value.
Listed here are compounds together with their documented pIC50.

{"COMPOUND": "CCc1cc(Nc2ncc(Br)c(Nc3ccc4nccnc4c3NS(C)(=O)=O)n2)c(OC)nc1N1CCC(N2CCN(C)CC2)CC1 [Compound I-404]", "pIC50": "≥ 7.30"}
{"COMPOUND": "COc1ccc(N2CCC(N3CCCC3)CC2)cc1Nc1ncc(Br)c(Nc2ccc3nccnc3c2N(C)S(C)(=O)=O)n1 [Compound I-382]", "pIC50": "6.30 to 7.30"}

Note: attention shifts to another entry.
What measured pIC50 goes with CCc1cc(Nc2nc(Nc3ccc4nccnc4c3N(C)S(C)(=O)=O)c3occc3n2)c(OC(F)(F)F)cc1N1CCC(N2CCN(C)CC2)CC1 [II-1-41] ?
6.30 to 7.30
